- EXPERIMENTAL TARGET: DNA topoisomerase 2-alpha (Homo sapiens)
- EXPERIMENT: Inhibition of human topoisomerase 2-alpha assessed as reduction in relaxation of pBR322 DNA at 100 uM measured after 30 mins by agarose gel electrophoresis method relative to control
Kind request: treat 80% as inclusive, so inhibition at 80% or higher is label 1, anything lower is label 0.

Field: example entries. Status: answers known.
[[record]]
sample_smiles = "O=[N+]([O-])c1cccc(-c2cc(/C=C/c3cc(O)cc(O)c3)ccc2O)c1"
category = "label 1"

[[record]]
sample_smiles = "O=[N+]([O-])c1cccc(-c2ccc(O)c(/C=C/c3cc(O)cc(O)c3)c2)c1"
category = "label 1"

[[record]]
sample_smiles = "Oc1cc(O)cc(/C=C/c2cc(-c3ccccc3)ccc2O)c1"
category = "label 1"


[ask] Threshold query (inhibition >= 80%) on "O=C(/C=C/c1ccccc1)Nc1ccc(NC(=O)c2cc(O)cc(O)c2)cc1"
[reply] label 0

[ask] Threshold query (inhibition >= 80%) on "C/C=C/C(=O)Nc1cc(/C=C/c2cc(O)cc(O)c2)ccc1O"
[reply] label 0

[ask] Threshold query (inhibition >= 80%) on "Oc1cc(O)cc(/C=C/c2ccc(O)c(-c3ccsc3)c2)c1"
[reply] label 1

[ask] Threshold query (inhibition >= 80%) on "C/C=C/C(=O)Nc1ccc(O)c(/C=C/c2cc(O)cc(O)c2)c1"
[reply] label 0

----------
- EXPERIMENTAL TARGET: DNA topoisomerase 2-alpha (Homo sapiens, UniProt P11388)
- Sequence (P11388 whole entry): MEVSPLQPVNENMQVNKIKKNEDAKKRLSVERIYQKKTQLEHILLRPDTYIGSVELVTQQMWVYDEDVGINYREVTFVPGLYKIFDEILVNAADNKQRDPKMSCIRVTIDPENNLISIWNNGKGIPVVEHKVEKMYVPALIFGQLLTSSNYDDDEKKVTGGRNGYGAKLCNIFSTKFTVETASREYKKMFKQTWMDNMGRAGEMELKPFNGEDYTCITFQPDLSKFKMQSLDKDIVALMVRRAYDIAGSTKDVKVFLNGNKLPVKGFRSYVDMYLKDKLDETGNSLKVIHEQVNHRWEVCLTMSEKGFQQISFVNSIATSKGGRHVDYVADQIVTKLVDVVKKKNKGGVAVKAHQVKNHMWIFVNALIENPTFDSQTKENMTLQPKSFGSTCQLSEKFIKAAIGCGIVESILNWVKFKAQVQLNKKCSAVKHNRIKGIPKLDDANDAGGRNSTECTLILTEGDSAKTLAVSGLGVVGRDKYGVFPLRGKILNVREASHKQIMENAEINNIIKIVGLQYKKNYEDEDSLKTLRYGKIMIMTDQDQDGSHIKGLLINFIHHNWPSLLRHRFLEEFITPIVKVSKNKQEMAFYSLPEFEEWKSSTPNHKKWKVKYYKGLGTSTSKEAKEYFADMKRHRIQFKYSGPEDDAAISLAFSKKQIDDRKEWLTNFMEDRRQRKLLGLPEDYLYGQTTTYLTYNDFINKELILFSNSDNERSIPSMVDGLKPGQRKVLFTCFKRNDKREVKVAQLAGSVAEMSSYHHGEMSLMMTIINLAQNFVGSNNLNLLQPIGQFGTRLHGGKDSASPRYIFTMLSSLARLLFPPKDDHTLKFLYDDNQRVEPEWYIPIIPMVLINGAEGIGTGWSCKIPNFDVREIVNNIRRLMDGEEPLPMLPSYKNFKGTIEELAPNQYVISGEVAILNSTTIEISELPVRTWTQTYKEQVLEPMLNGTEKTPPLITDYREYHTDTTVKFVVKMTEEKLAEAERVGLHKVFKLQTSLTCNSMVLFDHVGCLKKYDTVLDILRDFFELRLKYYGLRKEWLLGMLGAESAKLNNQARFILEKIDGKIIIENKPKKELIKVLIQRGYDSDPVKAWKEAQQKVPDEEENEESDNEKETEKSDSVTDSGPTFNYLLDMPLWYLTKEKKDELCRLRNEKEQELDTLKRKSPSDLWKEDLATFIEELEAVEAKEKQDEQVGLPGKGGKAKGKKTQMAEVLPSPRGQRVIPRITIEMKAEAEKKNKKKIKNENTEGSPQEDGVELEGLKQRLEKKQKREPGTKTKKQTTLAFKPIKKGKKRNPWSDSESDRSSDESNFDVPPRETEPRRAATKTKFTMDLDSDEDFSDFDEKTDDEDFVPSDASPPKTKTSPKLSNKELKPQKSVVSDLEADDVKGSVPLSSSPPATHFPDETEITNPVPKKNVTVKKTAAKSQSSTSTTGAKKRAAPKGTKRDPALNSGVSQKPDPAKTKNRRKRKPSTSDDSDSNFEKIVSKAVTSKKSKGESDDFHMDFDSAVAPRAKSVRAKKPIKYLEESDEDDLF
- EXPERIMENT: Inhibition of human topoisomerase 2-alpha assessed as reduction in relaxation of pBR322 DNA at 100 uM measured after 30 mins by agarose gel electrophoresis method relative to control
Here, each record is paired with measured inhibition data.
Your answer is read as %, so omit the unit and give the number.

Guide cases for inhibition, answers given:
[[record]]
compound = "Oc1cc(O)cc(/C=C/c2cc(-c3cccc(O)c3)ccc2O)c1"
experimental_endpoint = "inhibition"
recorded_value = 90.7

[[record]]
compound = "COc1cc([C@@H]2c3cc4c(cc3[C@@H](O[C@@H]3O[C@@H]5CO[C@@H](C)O[C@H]5[C@H](O)[C@H]3O)[C@H]3COC(=O)[C@H]23)OCO4)cc(OC)c1O [ETOPOSIDE]"
experimental_endpoint = "inhibition"
recorded_value = 43.3


[ask] Look at this compound and give its reported inhibition. "CNC(=O)/C=C/c1cc(/C=C/c2cc(O)cc(O)c2)ccc1O"
[reply] 45

----------
Here, each record is paired with measured inhibition data.
- EXPERIMENTAL TARGET: UniProtKB P11388
- EXPERIMENT: Inhibition of human topoisomerase 2-alpha assessed as reduction in relaxation of pBR322 DNA at 100 uM measured after 30 mins by agarose gel electrophoresis method relative to control
Your answer is read as %, so omit the unit and give the number.

Guide cases for inhibition, answers given:
[[record]]
sample_smiles = "Oc1cc(O)cc(/C=C/c2ccc(-c3ccccc3)cc2)c1"
experimental_target = "UniProtKB P11388"
experimental_endpoint = "inhibition"
output_unit = "%"
recorded_value = 81.2

[[record]]
sample_smiles = "Oc1cc(O)cc(/C=C/c2ccc(-c3ccsc3)cc2)c1"
experimental_target = "UniProtKB P11388"
experimental_endpoint = "inhibition"
output_unit = "%"
recorded_value = 78.5


Consider the additional molecule presented here.
[ask] Look at this molecule and give its reported inhibition. "O=C(/C=C/c1ccccc1)Nc1ccc(-c2cnc3cc(O)ccc3c2)cc1"
[reply] 82.3
